This collection of values is drawn from patent US20240050428A1.

tested on: MOLM-13 cells; test: Cell viability assay (CellTiter-Glo) in MOLM-13 cells, alone or with gilteritinib; type: cell-based; conditions: Homo sapiens, MOLM-13, 72 h, MOLM-13 cells, with gilteritinib 20 nM, three days, CellTiter-Glo; read-out: MOLM-13 IC50 gilteritinib
pIC50: −log10 of the molar value.
Recorded pIC50 for the following molecules
metric: pIC50

• O=C1CCC(N2C(=O)c3ccc(NC[C@H]4C[C@H](n5cc(-c6ccccc6F)c(C6CC6)n5)C4)cc3C2=O)C(=O)N1 (stereo partly shown) = 7.00 to 8.00
• O=C1CCC(N2Cc3c(Nc4ccnc(Nc5cccc(C(=O)N6CCC(n7cc(-c8cnc9ccccc9n8)cn7)CC6)c5)n4)cccc3C2=O)C(=O)N1 (stereo not shown) = 6.00 to 7.00
• O=C1CCC(N2C(=O)c3ccc(NCCC4CC(C(=O)N5CCC(n6cc(-c7cnc8ccccc8n7)cn6)CC5)C4)cc3C2=O)C(=O)N1 (stereo not shown) = > 8.00
• O=C1CCC(N2C(=O)c3ccc(NCCC[C@H]4C[C@H](n5cc(-c6cnc7ccc(CN8CCNCC8)cc7n6)c(C6CC6)n5)C4)cc3C2=O)C(=O)N1 (stereo partly shown) = > 8.00
• O=C1CCC(N2C(=O)c3ccc(NC[C@H]4C[C@H](n5cc(-c6ncccc6Cl)c(C6CC6)n5)C4)cc3C2=O)C(=O)N1 (stereo partly shown) = > 8.00
• O=C1CCC(N2C(=O)c3ccc(NCCOCCC(=O)N4CCC(n5cc(-c6cnc7ccccc7n6)cn5)CC4)cc3C2=O)C(=O)N1 (stereo not shown) = 7.00 to 8.00
• Cc1nn(CCCCCCNc2ccc3c(c2)C(=O)N(C2CCC(=O)NC2=O)C3=O)c(C)c1-c1ncccn1 (stereo not shown) = > 8.00
• O=C1CCC(N2C(=O)c3ccc(NC[C@H]4C[C@@H](n5cc(-c6cnc7ccc(N8CCOCC8)cc7n6)cn5)C4)cc3C2=O)C(=O)N1 (stereo partly shown) = 6.00 to 7.00
• O=C1CCC(N2Cc3cc(CCCCCCCn4cc(-c5cnc6ccccc6n5)cn4)ccc3C2=O)C(=O)N1 (stereo not shown) = 7.00 to 8.00
• O=C1CCC(N2C(=O)c3ccc(NCCCCCCN4CCC(O)CC4)cc3C2=O)C(=O)N1 (stereo not shown) = 6.00 to 7.00
• O=C1CCC(N2C(=O)c3ccc(NCCCCC(=O)N4CCC(n5cc(-c6cnc7ccc(N8CCNCC8)cc7n6)c(C6CC6)n5)CC4)cc3C2=O)C(=O)N1 (stereo not shown) = > 8.00
• O=C1CCC(N2C(=O)c3ccc(NCCCCCCn4cc(-c5cnc6cccc(Cl)c6n5)cn4)cc3C2=O)C(=O)N1 (stereo not shown) = 7.00 to 8.00
• O=C1CCC(N2C(=O)c3ccc(NC[C@H]4C[C@H](n5cc(-c6cc7[nH]cnc7cn6)c(C6CC6)n5)C4)cc3C2=O)C(=O)N1 (stereo partly shown) = 7.00 to 8.00
